- system: Epithelial Sodium Channel (ENaC) (Canis lupus familiaris, UniProt A0A8I3MKE6+A0A8I3Q679+Q95165)
- Construct: endogenous in cells; host or cells: primary canine bronchial epithelial cells from freshly excised airways, cultured at air-liquid interface and mounted in Ussing chambers
- Sequence (A0A8I3Q679 1-649): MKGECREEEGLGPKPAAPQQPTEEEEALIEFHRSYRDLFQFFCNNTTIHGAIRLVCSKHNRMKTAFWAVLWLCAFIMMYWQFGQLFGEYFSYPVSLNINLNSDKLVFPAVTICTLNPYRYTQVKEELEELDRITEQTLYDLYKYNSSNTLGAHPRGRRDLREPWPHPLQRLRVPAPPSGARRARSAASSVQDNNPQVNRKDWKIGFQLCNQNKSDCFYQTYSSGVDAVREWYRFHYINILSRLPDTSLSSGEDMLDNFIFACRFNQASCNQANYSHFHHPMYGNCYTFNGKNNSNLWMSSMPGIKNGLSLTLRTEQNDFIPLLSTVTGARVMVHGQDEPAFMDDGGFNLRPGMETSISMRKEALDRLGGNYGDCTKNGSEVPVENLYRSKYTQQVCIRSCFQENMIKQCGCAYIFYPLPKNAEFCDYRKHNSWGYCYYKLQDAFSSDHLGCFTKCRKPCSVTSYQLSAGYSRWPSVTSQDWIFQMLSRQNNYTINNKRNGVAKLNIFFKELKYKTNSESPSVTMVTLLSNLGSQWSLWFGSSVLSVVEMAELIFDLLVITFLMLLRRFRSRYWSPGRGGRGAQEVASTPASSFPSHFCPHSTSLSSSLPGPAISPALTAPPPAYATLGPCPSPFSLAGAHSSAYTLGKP
- Sequence (Q95165 1-641): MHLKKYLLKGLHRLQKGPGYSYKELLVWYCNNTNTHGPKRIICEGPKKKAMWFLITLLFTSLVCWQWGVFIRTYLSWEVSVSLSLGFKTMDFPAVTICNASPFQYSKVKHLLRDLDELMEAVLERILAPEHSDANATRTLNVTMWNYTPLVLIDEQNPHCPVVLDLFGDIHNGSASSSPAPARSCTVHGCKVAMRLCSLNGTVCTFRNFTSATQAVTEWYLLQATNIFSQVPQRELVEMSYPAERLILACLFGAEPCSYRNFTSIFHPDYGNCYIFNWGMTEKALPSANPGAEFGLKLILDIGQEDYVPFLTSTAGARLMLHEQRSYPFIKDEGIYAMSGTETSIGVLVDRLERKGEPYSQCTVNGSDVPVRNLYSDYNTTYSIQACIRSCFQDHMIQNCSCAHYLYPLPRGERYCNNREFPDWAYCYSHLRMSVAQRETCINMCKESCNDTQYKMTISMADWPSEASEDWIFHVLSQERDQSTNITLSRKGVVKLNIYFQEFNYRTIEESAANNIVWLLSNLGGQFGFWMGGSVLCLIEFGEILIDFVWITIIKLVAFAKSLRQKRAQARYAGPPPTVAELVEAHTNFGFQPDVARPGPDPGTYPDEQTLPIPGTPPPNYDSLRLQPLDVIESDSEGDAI
- Sequence (A0A8I3MKE6 1-646): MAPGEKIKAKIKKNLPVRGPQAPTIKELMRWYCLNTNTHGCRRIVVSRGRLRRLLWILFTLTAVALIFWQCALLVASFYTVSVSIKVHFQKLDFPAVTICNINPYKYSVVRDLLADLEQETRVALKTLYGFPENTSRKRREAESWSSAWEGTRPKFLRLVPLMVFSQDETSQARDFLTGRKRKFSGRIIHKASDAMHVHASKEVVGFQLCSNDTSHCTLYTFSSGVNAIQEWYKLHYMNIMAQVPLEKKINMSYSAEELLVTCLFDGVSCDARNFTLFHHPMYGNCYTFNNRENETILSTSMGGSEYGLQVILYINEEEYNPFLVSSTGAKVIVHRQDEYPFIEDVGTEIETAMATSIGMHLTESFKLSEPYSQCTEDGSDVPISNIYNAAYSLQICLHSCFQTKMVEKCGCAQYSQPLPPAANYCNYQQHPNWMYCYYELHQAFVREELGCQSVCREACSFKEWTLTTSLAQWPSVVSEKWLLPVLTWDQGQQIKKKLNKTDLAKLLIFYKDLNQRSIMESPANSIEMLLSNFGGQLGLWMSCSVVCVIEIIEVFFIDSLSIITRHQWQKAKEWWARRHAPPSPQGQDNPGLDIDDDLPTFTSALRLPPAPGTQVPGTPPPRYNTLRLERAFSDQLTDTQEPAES
- assay_text: Sodium channel (ENaC) blocking activity, short circuit current in airway epithelial monolayers in Ussing chambers
- Assay type: cell-based
- measurement_context: relative potency, PSA4022 = 100, using IC50 from PSA4022 in same run; canine bronchial epithelium; Table 3
- From the text: One assay used to assess mechanism of action and/or potency of the compounds of the present invention involves the determination of lumenal drug inhibition of airway epithelial sodium currents measured under short circuit current (ISC) using airway epithelial monolayers mounted in Ussing chambers. […] All test drug additions are to the lumenal bath with half-log dose addition protocols (from 1×10^−11 M to 3×10^−5 M), and the cumulative change in ISC (inhibition) recorded. […]
readout_kind: Fold Amiloride (PSA4022 = 100)

compound: N=C(NCCCCc1ccc(OCC(=O)N2CCNCC2)cc1)NC(=O)c1nc(Cl)c(N)nc1N
Fold Amiloride (PSA4022 = 100): 98

[a] CN(C)CCCCNC(=O)COc1ccc(CCCCNC(=N)NC(=O)c2nc(Cl)c(N)nc2N)cc1
[b] N=C(NCCCCc1ccc(OCC(=O)NCCN(CCO)CCO)cc1)NC(=O)c1nc(Cl)c(N)nc1N
Decide: a or b , by lowest recorded Fold Amiloride (PSA4022 = 100). I would appreciate it if you answered with the label of your choice.
b
(b: 38, a: 152)

The reported numbers originate from patent US8008494B2.
